Assay Procedure: folding enthalpy; higher = less favourable; fluorescence melt of hairpins on a sequencing array, two-state fit
Protocol Conditions: sodium 0.088 M
Measured Quantity: folding enthalpy
Could you kindly put the unit after your number?

## Input For GGGTCTGGAAACAGGCCC (((.(((....))).))) , write its folding enthalpy.
## Output -46.8 kcal/mol

## Input Give folding enthalpy for GCTGTAGGAAACTGCAGC ((((.((....)).))))
## Output -43.3 kcal/mol

## Input Retrieve folding enthalpy measured for GGTTGCCGAAAGGCTACC (((.(((....))).))) and print it.
## Output -29.6 kcal/mol

## Input Report measured folding enthalpy; entry is GGTGGTGGAAACGCTACC (((.(.(....).).)))
## Output -28.1 kcal/mol

## Input Please report the measured folding enthalpy for GCGAACCCTCGC ((((....))))
## Output -23.2 kcal/mol

## Input Give the reported value of folding enthalpy for this record: GTAGCCGAAAGGCCTAC ((((((....))).)))
## Output -12.5 kcal/mol

## Input Tell me measured folding enthalpy for GGCAACGGAAACATCGCC (((.(.(....).).))) please.
## Output -16.7 kcal/mol

## Input Entry CGCTGCGGAAACGCCGCG (((.(((....))).))) needs its folding enthalpy filled in; supply it.
## Output -29.1 kcal/mol

## Input Output folding enthalpy of GGGAACGAAAGTTACCCC ((((((....)))..)))
## Output -20.2 kcal/mol

## Input Supply recorded folding enthalpy for GTAAAGCGAAAGCTCTAC (((.(((....))).))) here.
## Output -14.5 kcal/mol

## Input Quick one: give measured folding enthalpy for GCCTGGCGAAAGCCCGGC (((.(((....))).)))
## Output -35.3 kcal/mol

## Input Note down folding enthalpy recorded for GACTACCGAAAGGTGGTC (((.(((....))).)))
## Output -38.6 kcal/mol
